Measured log10(cAMP Rel EC50, nM (1% HSA)), listed per entry for reference.
# Experimental System: human glucagon receptor (human) (UniProt P47871)
# Sequence (P47871 26-477): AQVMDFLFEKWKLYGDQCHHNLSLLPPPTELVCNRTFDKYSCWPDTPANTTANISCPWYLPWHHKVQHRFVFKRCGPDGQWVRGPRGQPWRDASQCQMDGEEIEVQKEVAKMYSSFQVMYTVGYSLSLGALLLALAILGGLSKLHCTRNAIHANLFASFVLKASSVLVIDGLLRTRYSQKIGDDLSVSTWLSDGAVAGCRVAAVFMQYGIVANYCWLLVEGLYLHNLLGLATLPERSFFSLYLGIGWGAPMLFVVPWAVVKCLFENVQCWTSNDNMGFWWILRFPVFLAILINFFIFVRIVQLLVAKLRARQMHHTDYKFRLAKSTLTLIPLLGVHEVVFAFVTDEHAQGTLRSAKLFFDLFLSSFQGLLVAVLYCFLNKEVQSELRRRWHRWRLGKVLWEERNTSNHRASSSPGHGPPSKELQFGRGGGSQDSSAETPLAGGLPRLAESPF
# Assay Overview: cell-based or functional assay
Starred links: 1 amine or outer side, 2 acyl side, 3 side chain; linkers in the order of their positions; H or OH if unused. Non-standard residues stand in square brackets, D forms with d. Groups on a side chain read outwards from the residue. No end group written: not given here. *: point of attachment. C20 diacid = O=C(O)CCCCCCCCCCCCCCCCCCC(=O)*; C18 diacid = O=C(O)CCCCCCCCCCCCCCCCC(=O)*; Phe(4-CN) = N#Cc1ccc(C[C@H](N)C(=O)O)cc1; αMePhe(2-F) = C[C@](N)(Cc1ccccc1F)C(=O)O; γGlu = O=C(O)[C@H](CCC(=O)[*:2])N[*:1]; αMeL = CC(C)C[C@](C)(N)C(=O)O; Dap = NC[C@H](N)C(=O)O; AEEA = NCCOCCOCC(=O)O; Aib = CC(C)(N)C(=O)O
Experimental Readout: log10(cAMP Rel EC50, nM (1% HSA)) (log10 of the value in nM)

>>> test_value("YXQGTXTSDXXIXLEXKAQXEFIEXLVEGGPSSGAPPPSGS (synthetic construct; SITE 2: note = 2-Aminoisobutyric Acid; SITE 6: note = alpha-methyl-2-fluoro-L-phenylalanine; SITE 10: note = 3-(4-Pyridyl)-L-alanine; SITE 11: note = alpha-methyl-L-serine; SITE 13: note = alpha-methyl-leucine; SITE 16: note = L-ornithine; SITE 17: note = Lysine is chemically mo) [Example 768]")
3.36
>>> test_value("Y[Aib]QGT[αMePhe(2-F)]TSD[Phe(4-CN)]SKLLDKIAQK([AEEA-γGlu-C20 diacid])AFIEYLIEGGPSSGEPPPSGS-NH2 [Example 364]")
3.50
>>> test_value("Y[Aib]QGTFTSDFS[Dap][αMeL]LDKK([γGlu-γGlu-C18 diacid])AQ[Aib]AFIEYLLE[Aib]GPSSGAPPPSGS-NH2 [Example 203]")
3.06
>>> test_value("YXQGTFTSDFSQXLDKKAQXAFIEYLLEXGESSGAPPPSGE (synthetic construct; SITE 2: note = 2-Aminoisobutyric Acid; SITE 13: note = alpha-methyl-leucine; SITE 17: note = Lysine is chemically modified through conjugation of the epsilon-amino group of the Lysine side chain with (2-[2-(2-Amino-ethoxy)-ethoxy]-acetyl)-(gamma-Glu)-CO-(CH2) 16-CO2H; SITE 20: n) [Example 789]")
3.08
>>> test_value("YXQGTXTSDXXIXLDXKAQXXFIEXLIEGGPSSGEPPPE (synthetic construct; SITE 2: note = 2-Aminoisobutyric Acid; SITE 6: note = alpha-methyl-2-fluoro-L-phenylalanine; SITE 10: note = 3-(4-Pyridyl)-L-alanine; SITE 11: note = alpha-methyl-L-serine; SITE 13: note = alpha-methyl-leucine; SITE 16: note = L-ornithine; SITE 17: note = Lysine is chemically mo) [Example 378]")
2.25
>>> test_value("YXQGTXTSDXSILLDKQAQKAFIEYLLEGGPSSGEPPPSEG (not fully specified; synthetic construct; SITE 2: note = 2-Aminoisobutyric Acid; SITE 6: note = alpha-methyl-2-fluoro-L-phenylalanine; SITE 10: note = 3-(4-Pyridyl)-L-alanine; SITE 20: note = Lysine is chemically modified through conjugation of the epsilon-amino group of the Lysine side chain with (2-[2-(2-Amino-ethoxy))) [Example 347]")
3.56
>>> test_value("YXQGTFTSDXSXXLDKKAQXAFIEYLIEXGESSGAPPPSGS (acylated; synthetic construct; SITE 2: note = 2-Aminoisobutyric Acid; SITE 10: note = 3-(4-Pyridyl)-L-alanine; SITE 12: note = L-ornithine; SITE 13: note = alpha-methyl-leucine; SITE 17: note = Lysine is chemically modified through conjugation of the epsilon-amino group of the Lysine side chain with (2-[2-(2-) [Example 223]")
2.57
>>> test_value("YXQGTFTSDYSKXLDKKAQXAFIEYLLEGGESSGAPPPSGS (synthetic construct; SITE 2: note = 2-Aminoisobutyric Acid; SITE 13: note = alpha-methyl-leucine; SITE 17: note = Lysine is chemically modified through conjugation of the epsilon-amino group of the Lysine side chain with (2-[2-(2-Amino-ethoxy)-ethoxy]-acetyl)-(gamma-Glu)-CO-(CH2) 16-CO2H; SITE 20: n) [Example 358]")
2.94
>>> test_value("YXQGTXTSDYSILLDXKAQXAFIEYLLEGGPSSGAPPPS (synthetic construct; SITE 2: note = 2-Aminoisobutyric Acid; SITE 6: note = alpha-methyl-2-fluoro-L-phenylalanine; SITE 16: note = L-ornithine; SITE 17: note = Lysine is chemically modified through conjugation of the epsilon-amino group of the Lysine side chain with (2-[2-(2-Amino-ethoxy)-ethoxy]-ace)) [Example 427]")
3.16
>>> test_value("YXQGTFTSDXSQXLDXKAQXQFIEXLLAGGPSSGAPPPSGSEE (non-natural residues, acylated Lys, C-terminal amide; synthetic construct; SITE 2: note = 2-Aminoisobutyric Acid; SITE 10: note = 3-(4-Pyridyl)-L-alanine; SITE 13: note = alpha-methyl-leucine; SITE 16: note = L-ornithine; SITE 17: note = Lysine is chemically modified through conjugation of the epsilon-amino group of the Lysine side chain with (gamma-Gl)) [Example 998]")
2.90
>>> test_value("HXQGTXTSDYSILLDKKAQXAFIEYLEEGGPSSGAPPPS (synthetic construct; SITE 2: note = 2-Aminoisobutyric Acid; SITE 6: note = alpha-methyl-2-fluoro-L-phenylalanine; SITE 17: note = Lysine is chemically modified through conjugation of the epsilon-amino group of the Lysine side chain with (gamma-Glu)2-CO-(CH2)16-CO2H; SITE 20: note = 2-Aminoisobutyric) [Example 426]")
2.87
>>> test_value("YXQGTFTSDFSXXLDKKAQXAFIEYLLEXGPSSGAPPPSGT (acylated lipid side chain; synthetic construct; SITE 2: note = 2-Aminoisobutyric Acid; SITE 12: note = L-ornithine; SITE 13: note = alpha-methyl-leucine; SITE 17: note = Lysine is chemically modified through conjugation of the epsilon-amino group of the Lysine side chain with (2-[2-(2-Amino-ethoxy)-ethoxy]-acetyl)-(gamma-Glu)) [Example 200]")
2.56
